Hey, just so you know, these numbers are from paper PMC12155096.

Reported IC50, UniProt P33261.
Sequence (P33261 whole entry): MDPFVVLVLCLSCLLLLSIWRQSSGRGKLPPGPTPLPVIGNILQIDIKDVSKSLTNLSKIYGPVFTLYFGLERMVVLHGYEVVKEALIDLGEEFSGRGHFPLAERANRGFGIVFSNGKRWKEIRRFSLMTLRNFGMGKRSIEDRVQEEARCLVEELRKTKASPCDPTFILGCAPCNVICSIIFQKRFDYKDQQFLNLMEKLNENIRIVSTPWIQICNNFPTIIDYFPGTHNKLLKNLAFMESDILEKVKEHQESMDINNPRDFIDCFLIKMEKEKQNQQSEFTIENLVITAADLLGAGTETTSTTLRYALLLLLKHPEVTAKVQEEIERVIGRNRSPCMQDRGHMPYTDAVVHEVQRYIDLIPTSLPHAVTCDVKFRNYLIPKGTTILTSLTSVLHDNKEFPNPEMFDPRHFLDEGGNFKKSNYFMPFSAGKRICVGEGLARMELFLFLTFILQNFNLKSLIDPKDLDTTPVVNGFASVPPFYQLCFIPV
Numbers only here, please. The scale is µM.

input: Determine reported IC50 for CCCCCCCC[N+](C)(CCCCCCCC)CCCCCCCC.O=S(=O)([O-])C(F)(F)F ; test system: UniProt P33261.
output: 12.9

Continuing:
input: Fetch value of IC50 on UniProt P33261 for CCCC[P+](C)(CCCC)CCCC.COS(=O)(=O)[O-] [Tributylmethylphosphonium methyl sulfate] .
output: 63.3

input: Report the value of IC50 obtained on UniProt P33261 for COc1cc2c(cc1N)oc1ccccc12 [2-Methoxy-3-aminodibenzofuran] .
output: 3.95

input: Provide IC50, tested on UniProt P33261, for CC(=O)[O][Sn]([c]1ccccc1)([c]1ccccc1)[c]1ccccc1 [Triphenyltin acetate] .
output: 4.84

====

- Target Entity: human CYP1A2 (Homo sapiens)
- Experiment Summary: biochemical
- Test Context: CYP1A2 AC50 (half-maximal activity concentration)
Measured Quantity: AC50 (µM)
Respond with the bare value in µM.

Check out these entries, answers already filled in.
input: Please supply the value of reported AC50 for the item O=[N+]([O-])c1cccc2ccccc12 [1-Nitronaphthalene]
output: 2.96

input: Give the measured AC50 for BrC(Br)C(Br)(Br)Br [Pentabromoethane]
output: 33.2

input: Identify measured AC50 associated with CCCSP(=O)(OCC)Oc1ccc(Br)cc1Cl (stereo not shown) [Profenofos]
output: 4.52

Continuing:
input: Look up and state reported AC50 for O=[N+]([O-])c1ccc(O)cc1C(F)(F)F [3-Trifluoromethyl-4-nitrophenol]
output: 56.6

input: Supply reported AC50 belonging to this compound: Oc1nc(Cl)c(Cl)cc1Cl [3,5,6-Trichloro-2-pyridinol]
output: 47.9

====

- Target Entity: human CYP1A2 (Homo sapiens, UniProt P05177)
- Sequence (P05177 whole entry): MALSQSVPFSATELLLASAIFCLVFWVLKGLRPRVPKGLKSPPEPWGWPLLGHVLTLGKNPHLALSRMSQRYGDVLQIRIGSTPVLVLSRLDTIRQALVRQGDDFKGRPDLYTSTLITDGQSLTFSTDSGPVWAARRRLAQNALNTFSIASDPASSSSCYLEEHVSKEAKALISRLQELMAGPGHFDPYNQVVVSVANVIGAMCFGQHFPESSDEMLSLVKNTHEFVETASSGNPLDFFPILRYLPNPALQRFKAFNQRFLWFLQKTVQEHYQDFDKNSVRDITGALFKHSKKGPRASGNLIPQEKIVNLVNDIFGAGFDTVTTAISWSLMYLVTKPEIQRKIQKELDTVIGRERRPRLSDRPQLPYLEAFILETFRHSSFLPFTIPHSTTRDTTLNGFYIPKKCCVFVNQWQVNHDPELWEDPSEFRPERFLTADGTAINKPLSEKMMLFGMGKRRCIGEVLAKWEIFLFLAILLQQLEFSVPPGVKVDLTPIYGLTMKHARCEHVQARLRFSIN
- Experiment Summary: biochemical
- Test Context: CYP1A2 IC50 (half-maximal inhibitory concentration), mean ± standard deviation from three experiments; qHTS
Measured Quantity: pIC50
pIC50 field: float, defined as -log10 of concentration (mol/L).

input: Report pIC50 for Clc1ccc(Nc2nnc(Cc3ccncc3)c3ccccc23)cc1 [Vatalanib]
output: 5.69

====

- Target Entity: human CYP2D6 (Homo sapiens)
Measured Quantity: CYP2D6 AC50 (half-maximal activity concentration)

input: Give me measured CYP2D6 AC50 (half-maximal activity concentration), please, for this molecule: CC1(C)[C@H](C(=O)OCc2cccc(Oc3ccccc3)c2)[C@@H]1C=C(Cl)Cl [cis-Permethrin in cyclohexane]
output: Inactive

input: Name the recorded CYP2D6 AC50 (half-maximal activity concentration) of the molecule listed here: CCOc1ccccc1C(N)=O [2-Ethoxybenzamide]
output: Inactive

input: Quote CYP2D6 AC50 (half-maximal activity concentration) reported for CCOC(=O)CC(=O)Cc1cc(F)c(Cl)nc1Cl please.
output: Inactive

input: Answer with the recorded CYP2D6 AC50 (half-maximal activity concentration) for the molecule listed here: CCC1(c2ccccc2)CCC(=O)NC1=O (stereo not shown) [Glutethimide]
output: Inactive

input: For the molecule COCC(=O)N(c1c(C)cccc1C)[C@H](C)C(=O)OC [Metalaxyl-M] , report CYP2D6 AC50 (half-maximal activity concentration).
output: Inactive

input: Kindly indicate its recorded CYP2D6 AC50 (half-maximal activity concentration). Item: CC(=O)O[C@H]1CC[C@@]2(C)C(=CC[C@@H]3[C@@H]2CC[C@]2(C)C(=O)CC[C@@H]32)C1 [Dehydroepiandrosterone acetate]
output: Inactive

input: Query CYP2D6 AC50 (half-maximal activity concentration) for O=[N+]([O-])c1cccc(Cl)c1Cl
output: Inactive

input: Input C=C1C[C@H]2[C@@H]3C=C(C)C4=CC(=O)CC[C@]4(C)[C@H]3CC[C@]2(C)[C@@]1(OC(C)=O)C(C)=O [Melengestrol acetate] , output reported CYP2D6 AC50 (half-maximal activity concentration).
output: Inactive

Others:
input: Could you please provide reported CYP2D6 AC50 (half-maximal activity concentration) for COC(=O)c1ccc(C(=O)OC)c(C(=O)OC)c1 [Trimethyl benzene-1,2,4-tricarboxylate] ? Thanks!
output: Inactive

input: Give the value of CYP2D6 AC50 (half-maximal activity concentration) reported for the following: O=[N+]([O-])c1cccc2cccc([N+](=O)[O-])c12
output: Inconclusive inhibitor

input: Indicate its recorded CYP2D6 AC50 (half-maximal activity concentration); the molecule in question is CCCCCCCCCCCC(=O)O.OCCN(CCO)CCO [Triethanolamine Laurate]
output: Inactive

input: Provide CYP2D6 AC50 (half-maximal activity concentration) value for the following molecule: CC(C)(C)c1cc([N+](=O)[O-])cc([N+](=O)[O-])c1O
output: Inconclusive inhibitor

input: Tell me measured CYP2D6 AC50 (half-maximal activity concentration) for Cc1c(C)c([N+](=O)[O-])c(C(C)(C)C)c([N+](=O)[O-])c1C please.
output: Inactive

input: Query CYP2D6 AC50 (half-maximal activity concentration) for COC(=O)C(C)N(C(=O)c1ccco1)c1c(C)cccc1C (stereo not shown)
output: Inactive

input: Look up and report measured CYP2D6 AC50 (half-maximal activity concentration) for this entry: CC1(C)[C@@H](O[C@H]2O[C@H](C(=O)O)[C@@H](O)[C@H](O)[C@H]2O[C@@H]2O[C@H](C(=O)O)[C@@H](O)[C@H](O)[C@H]2O)CC[C@]2(C)[C@H]3C(=O)C=C4[C@@H]5C[C@@](C)(C(=O)O)CC[C@]5(C)CC[C@@]4(C)[C@]3(C)CC[C@@H]12.N.O.O.O [Ammonium glycyrrhizinate trihydrate]
output: Inactive

input: Give recorded CYP2D6 AC50 (half-maximal activity concentration). CC(C)OC(=O)COc1ccc(Cl)cc1Cl
output: Inconclusive inhibitor

====

- Target Entity: CYP3A4 (Homo sapiens, UniProt P08684)
- Sequence (P08684 whole entry): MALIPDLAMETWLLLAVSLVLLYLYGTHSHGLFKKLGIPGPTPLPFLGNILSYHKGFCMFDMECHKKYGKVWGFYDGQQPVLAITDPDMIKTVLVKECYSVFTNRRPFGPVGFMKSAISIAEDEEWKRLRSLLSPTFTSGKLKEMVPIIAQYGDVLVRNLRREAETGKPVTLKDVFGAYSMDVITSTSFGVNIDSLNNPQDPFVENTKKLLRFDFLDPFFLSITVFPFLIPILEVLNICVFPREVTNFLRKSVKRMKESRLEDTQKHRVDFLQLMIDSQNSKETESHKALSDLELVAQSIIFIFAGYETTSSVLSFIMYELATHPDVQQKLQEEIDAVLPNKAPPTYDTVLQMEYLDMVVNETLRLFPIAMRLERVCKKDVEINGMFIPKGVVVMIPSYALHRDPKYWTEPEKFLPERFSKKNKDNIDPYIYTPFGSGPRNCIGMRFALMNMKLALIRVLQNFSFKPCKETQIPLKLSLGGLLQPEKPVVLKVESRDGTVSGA
- Experiment Summary: biochemical
- Test Context: CYP3A4 AC50 (half-maximal activity concentration)
So basically: is AC50 under 8 µM? Then yes. Not under? Then no.

input: Take the molecule O=[N+]([O-])c1c(Cl)cc(Cl)cc1Cl and say whether its AC50 is less than 8 µM.
output: yes

input: Confirm or reject: AC50 of O=C(NC(=O)c1c(F)cccc1F)Nc1cc(Cl)c(Oc2ncc(C(F)(F)F)cc2Cl)c(Cl)c1 lies strictly below 8 µM
output: no

input: Is the reported AC50 for O=C(Cc1ccccc1)c1ccccc1 strictly below 8 µM?
output: yes

input: Regarding COC(=O)C(C)N(C(=O)Cc1ccccc1)c1c(C)cccc1C (centres unmarked) , kindly confirm whether its AC50 is beneath 8 µM.
output: yes

Continuing:
input: Hi there! Is AC50 for CN(C(=O)C(Cl)Cl)c1ccc(OC(=O)c2ccco2)cc1 [Diloxanide furoate] below 8 µM, do you know?
output: no

====

- Target Entity: UniProtKB P10635
- Experiment Summary: biochemical
- Test Context: CYP2D6 IC50 (half-maximal inhibitory concentration)
Measured Quantity: log10 of IC50 (log10 of the value in µM)
Could you please treat all values as log10 of IC50 in µM?

Some compounds with recorded log10 of IC50:
input: State, in one line, measured log10 of IC50 of CCCc1c(OCCCCc2nnn[nH]2)ccc(C(C)=O)c1O
output: 1.50

input: Return the recorded log10 of IC50 value; entry: COc1c2occc2c(OC)c2c(=O)cc(C)oc12
output: 1.16

input: Consider the compound CCn1ccnc1CC1COc2ccccc2O1 (stereo not drawn) and give its recorded log10 of IC50.
output: -0.16

input: Quick one: give measured log10 of IC50 for CC(C)(C)C(=O)C(Oc1ccc(Cl)cc1)n1cncn1 (stereo not drawn)
output: 1.71

input: Tell me log10 of IC50 reported for CC1(C)CCC(=Cc2ccc(Cl)cc2)C1(O)Cn1cncn1 (stereo not drawn)
output: 0.98

Lab note: next compound to report on.
input: Give the measured log10 of IC50 for Nc1ccc2c(c1)CN1C(=O)c3ccccc3C1=N2
output: 0.64

====

Recorded IC50, one value per entry.
- Target Entity: human CYP2D6 (Homo sapiens, UniProt P10635)
- Sequence (P10635 whole entry): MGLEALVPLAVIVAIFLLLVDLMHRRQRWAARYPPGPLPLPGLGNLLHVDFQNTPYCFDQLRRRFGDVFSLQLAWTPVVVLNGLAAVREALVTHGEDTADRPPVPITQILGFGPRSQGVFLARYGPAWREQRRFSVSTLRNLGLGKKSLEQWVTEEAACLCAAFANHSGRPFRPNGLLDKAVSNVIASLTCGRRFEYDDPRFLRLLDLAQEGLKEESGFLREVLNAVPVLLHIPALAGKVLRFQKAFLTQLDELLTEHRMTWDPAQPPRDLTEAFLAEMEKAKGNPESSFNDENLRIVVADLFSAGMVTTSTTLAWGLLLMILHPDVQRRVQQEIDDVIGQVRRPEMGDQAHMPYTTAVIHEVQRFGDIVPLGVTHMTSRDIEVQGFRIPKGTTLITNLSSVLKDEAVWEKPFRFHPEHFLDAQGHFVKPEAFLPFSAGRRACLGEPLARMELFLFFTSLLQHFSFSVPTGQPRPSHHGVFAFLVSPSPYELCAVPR
- Experiment Summary: biochemical
Number plus unit, in that order.

input: Report IC50 from human CYP2D6 (Homo sapiens, UniProt P10635) testing of COc1ccc(S(=O)(=O)N2C(=O)[C@@](c3ccccc3OC)(N3C[C@H](O)C[C@H]3C(=O)N(C)C)c3cc(Cl)ccc32)c(OC)c1
output: 55.1 µM

We next turn to a different molecule, shown below.
input: Report value only: IC50, human CYP2D6 (Homo sapiens, UniProt P10635), Cc1cc(-c2ccc(N)c(C)c2)ccc1N
output: 3.41 µM

====

Let's go through some AC50 measurements on CYP3A4 (Homo sapiens, UniProt P08684) together.

input: Would you please give the reported AC50 of O=[N+]([O-])c1ccc(Nc2ccc(Nc3ccccc3)c(S(=O)(=O)[O-])c2)c([N+](=O)[O-])c1.[Na+] with CYP3A4 (Homo sapiens, UniProt P08684)?
output: 62.6 µM

input: # assay system CYP3A4 (Homo sapiens, UniProt P08684): give AC50 of CCCCCCCCCCCSCC(=O)O
output: 87.3 µM

***
input: Find AC50 for CC1(C)[C@@H](O[C@H]2O[C@H](C(=O)O)[C@@H](O)[C@H](O)[C@H]2O[C@@H]2O[C@H](C(=O)O)[C@@H](O)[C@H](O)[C@H]2O)CC[C@]2(C)[C@H]3C(=O)C=C4[C@@H]5C[C@@](C)(C(=O)O)CC[C@]5(C)CC[C@@]4(C)[C@]3(C)CC[C@@H]12.N.O.O.O [Ammonium glycyrrhizinate trihydrate] on CYP3A4 (Homo sapiens, UniProt P08684) and write it down.
output: 23.5 µM
